Catalogue of binders with associated koff
# TARGET: T1, hIL2-DM-his (human, UniProt P60568 21-153)
# T1 construct: expressed in ExpiCHO-S cells, nickel-column purified; also called hIL-2 mutein containing two point mutations K64G and N90R (with a his-tag); not shown: his-tag
# T1 sequence (P60568 21-153 K84G/N110R): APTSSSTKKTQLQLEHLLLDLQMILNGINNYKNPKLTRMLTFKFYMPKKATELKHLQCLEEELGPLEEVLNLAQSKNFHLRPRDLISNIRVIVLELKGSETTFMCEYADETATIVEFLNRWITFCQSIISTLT
# ASSAY: BLI ForteBio, Ab on Protein A sensor
Unit s⁻¹ implied. Number only.

In the examples that follow, each entry is paired with its recorded koff.
K4G7 (antibody, V domains shown) VH: QVQLVQSGAEVKKPGATVKISCKVSGDTITAYYMHWVRQAPGQGLEWIGRIDPEDDSTKYAENFKGRVTITADTSTDTAYMELSSLRSEDTAVYYCTTITFYYTRELRWFAYWGQGTLVTVSS VL: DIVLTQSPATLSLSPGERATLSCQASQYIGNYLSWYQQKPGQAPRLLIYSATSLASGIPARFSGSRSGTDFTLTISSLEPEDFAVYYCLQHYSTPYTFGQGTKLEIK
0.00127
K3G7 (antibody, V domains shown) VH: QVQLVQSGAEVKKPGATVKISCKVSGDTITAYYMHWVRQAPGQGLEWIGRIDPEDDSTKYAENFKGRVTITADTSTDTAYMELSSLRSEDTAVYYCTTITFYYTRELRWFAYWGQGTLVTVSS VL: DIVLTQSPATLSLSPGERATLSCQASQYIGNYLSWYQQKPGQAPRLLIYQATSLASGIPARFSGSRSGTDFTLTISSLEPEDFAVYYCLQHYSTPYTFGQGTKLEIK
0.000656
K3G3 (antibody, V domains shown) VH: QVQLVQSGAEVKKPGATVKISCKVSGDTITAYYMHWVRQAPGQGLEWIGRIDPDDDSTKYAENFKGRVTITADTSTDTAYMELSSLRSEDTAVYYCTTVTFYYSRELRWFAYWGQGTLVTVSS VL: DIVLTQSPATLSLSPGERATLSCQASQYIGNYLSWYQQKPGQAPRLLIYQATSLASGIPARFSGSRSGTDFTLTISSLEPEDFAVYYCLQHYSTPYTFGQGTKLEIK
0.00134
K1G1 (antibody, V domains shown) VH: QVQLVQSGAEVKKPGATVKISCKVSGDTITAYYMHWVRQAPGQGLEWIGRIDPEDDSTKYAENFKGRVTITADTSTDTAYMELSSLRSEDTAVYYCTTVTFYYSRELRWFAYWGQGTLVTVSS VL: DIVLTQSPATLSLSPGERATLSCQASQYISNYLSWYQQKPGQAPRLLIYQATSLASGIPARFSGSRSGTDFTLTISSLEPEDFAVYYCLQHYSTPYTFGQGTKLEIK
0.000491
K3G5 (antibody, V domains shown) VH: QVQLVQSGAEVKKPGATVKISCKVSGDTITAYYMHWVRQAPGQGLEWIGRIDPEDDSTKYAENFKGRVTITADTSTDTAYMELSSLRSEDTAVYYCTTVTFYYTRELRWFAYWGQGTLVTVSS VL: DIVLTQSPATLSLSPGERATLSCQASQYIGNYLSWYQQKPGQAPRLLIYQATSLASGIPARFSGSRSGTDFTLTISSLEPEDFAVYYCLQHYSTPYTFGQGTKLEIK
0.00124

Report koff for K3G2 (antibody, V domains shown) VH: QVQLVQSGAEVKKPGATVKISCKVSGDTITAYYMHWVRQAPGQGLEWIGRIDPEDDSTKYAENFKGRVTITADTSTDTAYMELSSLRSEDTAVYYCTTITFYYSRELRWFAYWGQGTLVTVSS VL: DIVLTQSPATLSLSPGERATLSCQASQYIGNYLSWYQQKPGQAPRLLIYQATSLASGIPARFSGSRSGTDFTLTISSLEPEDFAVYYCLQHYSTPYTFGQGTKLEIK please. 0.00118

Ok, now K3G8 (antibody, V domains shown) VH: QVQLVQSGAEVKKPGATVKISCKVSGDTITAYYMHWVRQAPGQGLEWIGRIDPEDDSTKYAENFKGRVTITADTSTDTAYMELSSLRSEDTAVYYCTTITFLYSRELRWFAYWGQGTLVTVSS VL: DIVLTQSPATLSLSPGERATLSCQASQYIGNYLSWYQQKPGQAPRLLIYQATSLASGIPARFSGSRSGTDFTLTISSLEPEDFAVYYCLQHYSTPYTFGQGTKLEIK 0.000446
